EC50 values, listed per item
# target: Human CB2R (Cannabanoid receptor 2) (Homo sapiens (Human), UniProt P34972)
# Sequence (P34972 whole entry): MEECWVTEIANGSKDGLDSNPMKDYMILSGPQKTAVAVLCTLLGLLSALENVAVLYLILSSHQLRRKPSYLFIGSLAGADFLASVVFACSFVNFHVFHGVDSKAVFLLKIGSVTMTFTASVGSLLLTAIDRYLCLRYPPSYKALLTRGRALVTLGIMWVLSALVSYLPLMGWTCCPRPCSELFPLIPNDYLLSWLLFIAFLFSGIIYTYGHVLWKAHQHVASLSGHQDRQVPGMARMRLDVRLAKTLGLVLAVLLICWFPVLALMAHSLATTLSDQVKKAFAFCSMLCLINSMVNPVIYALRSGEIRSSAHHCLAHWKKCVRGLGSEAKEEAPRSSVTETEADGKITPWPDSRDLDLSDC
# experimentDescription: CB-2 in vitro cAMP (HTRF) assay in HEK-293 cells
# measurementParameters: HEK-293 cells stably transfected with human CB2R, 250 nM Forskolin, mean where tested more than once, read-out: CB-2 (HEK_cAMP) EC50
# Description: CB1 and CB2 receptors are Gi-coupled GPCR. Activation of CB1 and CB2 receptors results in a decrease in cAMP production. An inverse agonist of the CB1 or CB2 receptor results in the opposite effect, an increase of cAMP production. The principle of this assay is based on HTRF® technology (Homogeneous Time-Resolved Fluorescence). […] The tracer binding is quantified by a Mab anti-cAMP labeled with Eu3+TBP-NHS Cryptate (supplied as part of the assay kit). […]

Data request, read-out EC50, for O=C(O)c1ccc(CN2CCC(c3c4cc(C(c5ccc(Cl)cc5)c5ccc(Cl)cc5)ccc4nn3C3CC3)CC2)nc1 [Compound 252] > 10 µM

----------
EC50 values, listed per item
# target: Human CB1R (Cannabanoid receptor 1) (Homo sapiens (Human))
# experimentDescription: CB-1 in vitro cAMP (HTRF) assay in HEK-293 cells
# measurementParameters: HEK-293 cells stably transfected with human CB1R, 250 nM Forskolin, mean where tested more than once, read-out: CB-1 (HEK_cAMP) EC50
A bare number is not enough; add the unit after it.

[[record]]
molecule = "COC(=O)c1ccccc1S(=O)(=O)N1CCC(c2n[nH]c3ccc(C(c4ccc(Cl)cc4)c4ccc(Cl)cc4)cc23)CC1 [Compound 31]"
endpointresult = "128 nM"

[[record]]
molecule = "O=S(=O)(C(F)F)N1CCC(c2n[nH]c3ccc(C(c4ccc(Cl)cc4)c4ccc(Cl)cc4)cc23)CC1 [Compound 219]"
endpointresult = "1540 nM"


Now for a further molecule.
Data request, read-out EC50, for O=S(=O)(N1CCC(c2nn(-c3cccc(Cl)c3)c3ccc(C(c4ccc(Cl)cc4)c4ccc(Cl)cc4)cc23)CC1)C(F)(F)F [Compound 47] 41 nM

----------
EC50 values, listed per item
# target: Human CB1R (Cannabanoid receptor 1) (Homo sapiens (Human))
# experimentDescription: CB-1 in vitro cAMP (HTRF) assay in HEK-293 cells
# measurementParameters: HEK-293 cells stably transfected with human CB1R, 250 nM Forskolin, mean where tested more than once, read-out: CB-1 (HEK_cAMP) EC50
A bare number is not enough; add the unit after it.

Data request, read-out EC50, for O=C(O)c1cccc(C(=O)N2CCC(c3nn(C4CC4)c4ccc(C(c5ccc(Cl)cc5)c5ccc(Cl)cc5)cc34)CC2)c1 [Compound 97] 478 nM

Data request, read-out EC50, for CC(C)(C)OC(=O)N1CCC(c2nn(CCO)c3ccc(C(c4ccc(Cl)cc4)c4ccc(Cl)cc4)cc23)CC1 [Compound 76] 112 nM

Data request, read-out EC50, for NC(=O)c1ccccc1S(=O)(=O)N1CCC(Nc2n[nH]c3ccc(C(c4ccc(Cl)cc4)c4ccc(Cl)cc4)cc23)CC1 [Compound 121] 375 nM

Data request, read-out EC50, for Cn1nc(C2CCN(S(=O)(=O)c3cccc(C(=O)O)c3)CC2)c2cc(C(c3ccc(Cl)cc3)c3ccc(Cl)cc3)ccc21 [Compound 63] 66 nM

Data request, read-out EC50, for O=C(O)c1cc(S(=O)(=O)N2CCC(c3c4cc(C(c5ccc(Cl)cc5)c5ccc(Cl)cc5)ccc4nn3C3CC3)CC2)ccc1F [Compound 162] 4 nM

Data request, read-out EC50, for O=C(O)c1ccc(C(=O)N2CCC(c3c4cc(C(c5ccc(Cl)cc5)c5ccc(Cl)cc5)ccc4nn3C3CC3)CC2)cc1 [Compound 113] 4240 nM

Data request, read-out EC50, for NC(=O)c1cc(S(=O)(=O)N2CCC(c3c4cc(C(c5ccc(Cl)cc5)c5ccc(Cl)cc5)ccc4nn3C3CC3)CC2)ccc1Cl [Compound 169] 17 nM

Data request, read-out EC50, for O=C(O)c1ccc(S(=O)(=O)N2CCC(c3c4cc(C(c5ccc(Cl)cc5)c5ccc(Cl)cc5)ccc4nn3C3CC3)CC2)cc1F [Compound 200] 624 nM

Data request, read-out EC50, for O=C(O)c1cccc(CN2CCC(c3c4cc(C(c5ccc(Cl)cc5)c5ccc(Cl)cc5)ccc4nn3C3CC3)CC2)n1 [Compound 251] 14 nM

Data request, read-out EC50, for O=C(O)c1csc(CN2CCC(c3nn(C4CC4)c4ccc(C(c5ccc(Cl)cc5)c5ccc(Cl)cc5)cc34)CC2)c1 [Compound 227] 84 nM

Data request, read-out EC50, for CC(O)Cn1nc(C2CCN(S(=O)(=O)C(F)(F)F)CC2)c2cc(C(c3ccc(Cl)cc3)c3ccc(Cl)cc3)ccc21 (stereo not shown) [Compound 202] 169 nM

Data request, read-out EC50, for O=C(O)c1ccccc1S(=O)(=O)N1CCC(c2nn(C3CC3)c3ccc(C(c4ccc(Cl)cc4)c4ccc(Cl)cc4)cc23)CC1 [Compound 87] 6740 nM

Data request, read-out EC50, for NC(=O)Cc1ccc(N2CCC(c3c4cc(C(c5ccc(Cl)cc5)c5ccc(Cl)cc5)ccc4nn3C3CC3)CC2)cc1 [Compound 186] 59 nM

----------
# experimentDescription: Mouse Fast PK/BBB
# Type: in vivo, Male C57bl/6j mice
# measurementParameters: oral, Dose 30 mg/kg, Time 4 hr
# Experimental: Male C57bl/6j mice were ordered from Charles River at 22-25 g and housed 3 per cage. They were fed standard chow (Purina 5001). Male C57bl/6j mice were dosed with test compounds at 20 mg/kg or 30 mg/kg. Plasma was collected via retro-orbital bleeding at 1 hr and 4 hrs after dosing. Whole brain without cerebellum was collected at 4 hrs after dosing. Wet brain weight was recorded before freezing. Brains were homogenized in saline and sent for analysis for determination of concentration of test compound.
outcomeMeasure: PLASMA Mean Conc. (ng/mL) ± Std. Dev
State the answer as a number, implicitly in ng/mL.

Reference set, count: 3
[[record]]
substancesmiles = "O=C(O)c1ccc([C@@H](c2ccc(Cl)cc2)c2ccc3[nH]nc(N4CCN(S(=O)(=O)C(F)(F)F)CC4)c3c2)cc1"
outcomemeasure = "PLASMA Mean Conc. (ng/mL) ± Std. Dev"
endpointresult = 979

[[record]]
substancesmiles = "NC(=O)c1cccc(CN2CCC(c3nn(C4CC4)c4ccc(C(c5ccc(Cl)cc5)c5ccc(Cl)cc5)cc34)CC2)c1"
outcomemeasure = "PLASMA Mean Conc. (ng/mL) ± Std. Dev"
endpointresult = 532.8

[[record]]
substancesmiles = "O=C(O)c1ccc([C@@H](c2ccc(Cl)cc2)c2ccc3[nH]nc(C4CCN(S(=O)(=O)C(F)(F)F)CC4)c3c2)cc1"
outcomemeasure = "PLASMA Mean Conc. (ng/mL) ± Std. Dev"
endpointresult = 196


Now for a further compound.
Data request, read-out PLASMA Mean Conc. (ng/mL) ± Std. Dev, for `O=C(O)c1cccc(CN2CCC(c3nn(C4CC4)c4ccc(C(c5ccc(Cl)cc5)c5ccc(Cl)cc5)cc34)CC2)c1` 4317

----------
pEC50 values, listed per item
# target: Human CB2R (Cannabanoid receptor 2) (Homo sapiens (Human))
# experimentDescription: CB-2 in vitro cAMP (HTRF) assay in HEK-293 cells
# measurementParameters: HEK-293 cells stably transfected with human CB2R, 250 nM Forskolin, mean where tested more than once, read-out: CB-2 (HEK_cAMP) EC50
Field pEC50 (float): negative decimal logarithm of the concentration in molar.

Reference set, count: 2
[[record]]
compound = "Nc1ccc(C(c2ccc(Cl)cc2)c2ccc3[nH]nc(N4CCN(S(=O)(=O)C(F)(F)F)CC4)c3c2)cc1 (stereo not shown) [Compound 226]"
outcomemeasure = "pEC50"
endpointresult = 5.26

[[record]]
compound = "O=C(O)c1ccc(S(=O)(=O)N2CCC(c3c4cc(C(c5ccc(Cl)cc5)c5ccc(Cl)cc5)ccc4nn3C3CC3)CC2)cc1 [Compound 117]"
outcomemeasure = "pEC50"
endpointresult = 5.81


Now for a further compound.
Data request, read-out pEC50, for CCNC(=O)N1CCC(c2n[nH]c3ccc(C(c4ccc(Cl)cc4)c4ccc(Cl)cc4)cc23)CC1 [Compound 264] 5.37

----------
# target: Human CB1R (Cannabanoid receptor 1) (Homo sapiens (Human), UniProt P21554)
# Sequence (P21554 whole entry): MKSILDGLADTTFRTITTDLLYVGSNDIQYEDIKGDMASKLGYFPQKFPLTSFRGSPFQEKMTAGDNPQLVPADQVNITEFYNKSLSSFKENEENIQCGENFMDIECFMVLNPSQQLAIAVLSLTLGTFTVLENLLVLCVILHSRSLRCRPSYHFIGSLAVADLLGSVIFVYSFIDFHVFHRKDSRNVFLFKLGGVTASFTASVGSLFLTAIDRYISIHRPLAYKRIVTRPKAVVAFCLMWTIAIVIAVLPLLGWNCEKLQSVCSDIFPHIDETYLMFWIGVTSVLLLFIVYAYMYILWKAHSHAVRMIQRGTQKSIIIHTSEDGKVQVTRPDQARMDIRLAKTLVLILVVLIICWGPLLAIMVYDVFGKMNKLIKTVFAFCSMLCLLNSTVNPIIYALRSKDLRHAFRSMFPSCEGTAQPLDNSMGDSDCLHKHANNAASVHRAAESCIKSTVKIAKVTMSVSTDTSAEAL
# experimentDescription: CB-1 in vitro cAMP (HTRF) assay in HEK-293 cells
# measurementParameters: HEK-293 cells stably transfected with human CB1R, 250 nM Forskolin, mean where tested more than once, read-out: CB-1 (HEK_cAMP) EC50
EC50 values, listed per item
State the answer as a number, implicitly in nM.

[[record]]
compound = "O=S(=O)(N1CCC(c2nn(-c3ccc(Cl)c(Cl)c3)c3ccc(C(c4ccc(Cl)cc4)c4ccc(Cl)cc4)cc23)CC1)C(F)(F)F"
outcomemeasure = "EC50"
quantityunit = "nM"
endpointresult = 13

[[record]]
compound = "NC(=O)c1ccc(C(c2ccc(Cl)cc2)c2ccc3[nH]nc(C4CCN(S(=O)(=O)C(F)(F)F)CC4)c3c2)cn1 (stereo not shown)"
outcomemeasure = "EC50"
quantityunit = "nM"
endpointresult = 11

[[record]]
compound = "O=S(=O)(N1CCC(c2n[nH]c3ccc(C(c4ccc(Cl)cc4)C4CCCC4)cc23)CC1)C(F)(F)F (stereo not shown)"
outcomemeasure = "EC50"
quantityunit = "nM"
endpointresult = 785


Data request, read-out EC50, for `NC(=O)c1cccc(N2CCC(c3c4cc(C(c5ccc(Cl)cc5)c5ccc(Cl)cc5)ccc4nn3C3CC3)CC2)c1` 26
